Every entry's value here was drawn from patent US10947284B2.

Molecular target: hNGAL (human lipocalin 2, parent wild type SEQ ID NO: 1) mutein SEQ ID NO: 47 (Homo sapiens, UniProt P80188, A60L/C107S/D97K/I61A/K154W/K93H/L123Q/L56E/L62R/L90R/N116L/Q48H/Q69M/R101V/S125P/S147V/S88E/W99D/Y120D/Y126E/Y72M)
Sequence (P80188 other isoform, or with tags, fused parts or gaps with the stated changes): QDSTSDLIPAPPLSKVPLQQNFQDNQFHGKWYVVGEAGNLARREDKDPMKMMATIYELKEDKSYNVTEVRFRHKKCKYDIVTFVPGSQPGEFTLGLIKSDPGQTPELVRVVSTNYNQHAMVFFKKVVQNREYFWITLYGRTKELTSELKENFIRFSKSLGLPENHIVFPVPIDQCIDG
Experiment: Solution binding ELISA
test readout: IC50 (nM)

compound="NC(=O)CC[C@H](NC(=O)[C@H](CCCN([O-])C=O)NC(=O)[C@@H]1CCN=C([C@@H](CO)NC(=O)[C@@H]2CCNc3c(NC(=O)C(=O)CCC(=O)O)cc4cc([O-])c([O-])cc4[n+]32)N1)C(=O)N[C@H](CCC(N)=O)C(=O)N[C@H](CCCN([O-])C=O)C(=O)NCC(=O)O.[Fe+3] [Pvd III aKG (+Fe), Pvd type III α-ketoglutaryl]" uom=nM result=0.82
compound="NC(=O)CC[C@H](NC(=O)[C@H](CCCN(O)C=O)NC(=O)[C@@H]1CCN=C([C@@H](CO)NC(=O)[C@@H]2CCNc3c(NC(=O)C(=O)CCC(=O)O)cc4cc(O)c(O)cc4[n+]32)N1)C(=O)N[C@H](CCC(N)=O)C(=O)N[C@H](CCCN(O)C=O)C(=O)NCC(=O)O [Pvd III aKG (−Fe), Pvd type III α-ketoglutaryl]" uom=nM result=0.58
compound="NC(=O)CCC(=O)Nc1cc2cc([O-])c([O-])cc2[n+]2c1NCC[C@H]2C(=O)N[C@H](CO)C1=NCC[C@@H](C(=O)N[C@@H](CCCN([O-])C=O)C(=O)N[C@@H](CCC(N)=O)C(=O)N[C@H](CCC(N)=O)C(=O)N[C@H](CCCN([O-])C=O)C(=O)NCC(=O)O)N1.[Fe+3] [Pvd III sa (+Fe), Pvd type III succinamide]" uom=nM result=0.3
compound="NC(=O)CCC(=O)Nc1cc2cc(O)c(O)cc2[n+]2c1NCC[C@H]2C(=O)N[C@H](CO)C1=NCC[C@@H](C(=O)N[C@@H](CCCN(O)C=O)C(=O)N[C@@H](CCC(N)=O)C(=O)N[C@H](CCC(N)=O)C(=O)N[C@H](CCCN(O)C=O)C(=O)NCC(=O)O)N1 [Pvd III sa (−Fe), Pvd type III succinamide]" uom=nM result=0.28

* * *

Biological target: hNGAL (human lipocalin 2, parent wild type SEQ ID NO: 1) mutein SEQ ID NO: 46 (deletion of G-N-I-K, positions 95-98) (Homo sapiens, UniProt P80188, A60L/C107S/D97Q/DEL115-118/I61A/K154W/K93Y/L123Q/L56E/L90R/Q48H/Q69K/R101V/S147V/S88E/W99D/Y120E/Y126E/Y152F/Y72M)
Sequence (P80188 other isoform, or with tags, fused parts or gaps with the stated changes): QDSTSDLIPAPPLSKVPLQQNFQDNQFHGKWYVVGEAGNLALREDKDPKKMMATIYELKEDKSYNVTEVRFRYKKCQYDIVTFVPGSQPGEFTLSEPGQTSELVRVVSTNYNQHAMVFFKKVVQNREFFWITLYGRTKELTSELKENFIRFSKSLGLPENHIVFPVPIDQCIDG
Experiment: Solution binding ELISA
pIC50: −log10 of the molar value.
test readout: pIC50

compound="NC(=O)CC[C@H](NC(=O)[C@H](CCCN([O-])C=O)NC(=O)[C@@H]1CCN=C([C@@H](CO)NC(=O)[C@@H]2CCNc3c(NC(=O)C(=O)CCC(=O)O)cc4cc([O-])c([O-])cc4[n+]32)N1)C(=O)N[C@H](CCC(N)=O)C(=O)N[C@H](CCCN([O-])C=O)C(=O)NCC(=O)O.[Fe+3] [Pvd III aKG (+Fe), Pvd type III α-ketoglutaryl]" result=8.99
compound="NC(=O)CCC(=O)Nc1cc2cc(O)c(O)cc2[n+]2c1NCC[C@H]2C(=O)N[C@H](CO)C1=NCC[C@@H](C(=O)N[C@@H](CCCN(O)C=O)C(=O)N[C@@H](CCC(N)=O)C(=O)N[C@H](CCC(N)=O)C(=O)N[C@H](CCCN(O)C=O)C(=O)NCC(=O)O)N1 [Pvd III sa (−Fe), Pvd type III succinamide]" result=9.52
compound="NC(=O)CC[C@H](NC(=O)[C@H](CCCN(O)C=O)NC(=O)[C@@H]1CCN=C([C@@H](CO)NC(=O)[C@@H]2CCNc3c(NC(=O)C(=O)CCC(=O)O)cc4cc(O)c(O)cc4[n+]32)N1)C(=O)N[C@H](CCC(N)=O)C(=O)N[C@H](CCCN(O)C=O)C(=O)NCC(=O)O [Pvd III aKG (−Fe), Pvd type III α-ketoglutaryl]" result=8.92

* * *

Biological target: hNGAL (human lipocalin 2, parent wild type SEQ ID NO: 1) mutein SEQ ID NO: 50 (Homo sapiens, UniProt P80188, A60L/C107S/D97K/I61A/K154W/K93H/L123Q/L56E/L62R/L90R/N116L/N85D/Q48H/Q69M/R101V/S125P/S147V/S88E/W99D/Y120D/Y126E/Y72M)
Sequence (P80188 other isoform, or with tags, fused parts or gaps with the stated changes): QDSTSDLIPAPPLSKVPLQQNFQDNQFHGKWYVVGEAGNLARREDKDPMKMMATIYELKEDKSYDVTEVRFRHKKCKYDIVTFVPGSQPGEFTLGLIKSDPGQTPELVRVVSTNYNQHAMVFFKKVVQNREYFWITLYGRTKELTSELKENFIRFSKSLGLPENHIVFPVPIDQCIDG
Test: Solution binding ELISA
Conditions: Example 5
pIC50: −log10 of the molar value.
test readout: pIC50

compound="NC(=O)CC[C@H](NC(=O)[C@H](CCCN(O)C=O)NC(=O)[C@@H]1CCN=C([C@@H](CO)NC(=O)[C@@H]2CCNc3c(NC(=O)C(=O)CCC(=O)O)cc4cc(O)c(O)cc4[n+]32)N1)C(=O)N[C@H](CCC(N)=O)C(=O)N[C@H](CCCN(O)C=O)C(=O)NCC(=O)O [Pvd III aKG (−Fe), Pvd type III α-ketoglutaryl]" result=9.09
compound="NC(=O)CCC(=O)Nc1cc2cc(O)c(O)cc2[n+]2c1NCC[C@H]2C(=O)N[C@H](CO)C1=NCC[C@@H](C(=O)N[C@@H](CCCN(O)C=O)C(=O)N[C@@H](CCC(N)=O)C(=O)N[C@H](CCC(N)=O)C(=O)N[C@H](CCCN(O)C=O)C(=O)NCC(=O)O)N1 [Pvd III sa (−Fe), Pvd type III succinamide]" result=9.43
compound="NC(=O)CC[C@H](NC(=O)[C@H](CCCN([O-])C=O)NC(=O)[C@@H]1CCN=C([C@@H](CO)NC(=O)[C@@H]2CCNc3c(NC(=O)C(=O)CCC(=O)O)cc4cc([O-])c([O-])cc4[n+]32)N1)C(=O)N[C@H](CCC(N)=O)C(=O)N[C@H](CCCN([O-])C=O)C(=O)NCC(=O)O.[Fe+3] [Pvd III aKG (+Fe), Pvd type III α-ketoglutaryl]" result=9.02

* * *

Entries and their measured Kd follow.
Target: Fusion molecule SEQ ID NO: 134 (hNGAL muteins SEQ ID NOs: 36, 16, 53 and 62) (Homo sapiens, UniProt P80188, A60T/C107S/D97H, form not given/K145I/K154W/K93R/L123T/L56V/L90R/N85D/Q69G/R101D/R92I/S147R/S88D/T74A/W99Y/Y126Q/Y152I/Y72N)
Sequence (P80188 with tags, fused parts or gaps with the stated changes, form open): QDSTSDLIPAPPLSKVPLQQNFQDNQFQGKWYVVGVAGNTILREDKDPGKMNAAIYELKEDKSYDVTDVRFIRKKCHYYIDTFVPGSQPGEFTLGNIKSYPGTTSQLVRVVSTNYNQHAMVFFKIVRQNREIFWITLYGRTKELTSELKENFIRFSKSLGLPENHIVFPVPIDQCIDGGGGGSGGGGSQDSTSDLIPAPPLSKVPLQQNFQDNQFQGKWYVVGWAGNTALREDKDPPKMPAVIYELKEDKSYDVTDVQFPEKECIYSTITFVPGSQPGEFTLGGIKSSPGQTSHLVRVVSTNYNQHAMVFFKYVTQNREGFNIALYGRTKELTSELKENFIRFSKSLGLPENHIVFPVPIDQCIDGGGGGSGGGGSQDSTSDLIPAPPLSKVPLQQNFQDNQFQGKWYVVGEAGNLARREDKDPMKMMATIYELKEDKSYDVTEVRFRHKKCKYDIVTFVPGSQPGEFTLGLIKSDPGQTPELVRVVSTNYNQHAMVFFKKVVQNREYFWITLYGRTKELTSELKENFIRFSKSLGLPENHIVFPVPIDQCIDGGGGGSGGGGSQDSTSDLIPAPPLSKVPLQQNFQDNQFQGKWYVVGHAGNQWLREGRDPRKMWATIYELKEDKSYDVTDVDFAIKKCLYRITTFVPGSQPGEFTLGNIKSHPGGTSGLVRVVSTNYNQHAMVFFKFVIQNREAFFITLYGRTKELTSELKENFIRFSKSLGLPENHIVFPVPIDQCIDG
Assay: Surface plasmon resonance (Biacore T200)
Details: Biacore, 25° C., Table 13
Starred links: 1 amine or outer side, 2 acyl side, 3 side chain; linkers in the order of their positions; H or OH if unused. Non-standard residues stand in square brackets, D forms with d. Residues, ends and D or L forms follow the SMILES beside them. *: point of attachment. X1 = O=C([C@@H]1CCNc2c(N[*:1])cc3cc(O)c(O)cc3[n+]21)[*:2]; dOrn(N5-OH,N5-CHO) = N[C@H](CCCN(O)C=O)C(=O)O; Butanoyl(2-oxo,4-COOH) = O=C(O)CCC(=O)C(=O)*; d(aThr) = C[C@@H](O)[C@@H](N)C(=O)O; X2 = O=C1[C@@H](N*)CCCN1[O-]; X3 = O=C1[C@@H](N*)CCCN1O; Orn = NCCC[C@H](N)C(=O)O
test readout: Kd (nM)

compound="C[C@@H](O)[C@@H](NC(=O)CNC(=O)[C@H](CCCN)NC(=O)[C@@H](CCCN(O)C=O)NC(=O)[C@@H](CO)NC(=O)[C@@H]1CCNc2c(NC(=O)C(=O)CCC(=O)O)cc3cc(O)c(O)cc3[n+]21)C(=O)N[C@@H](CO)C(=O)N[C@H]1CCCN(O)C1=O [Pvd II aKG (−Fe), Pvd type II α-ketoglutaryl] ({Butanoyl(2-oxo,4-COOH)}-[X1][dS][dOrn(N5-OH,N5-CHO)][Orn]G[d(aThr)]S-X3)" uom=nM result=3.27
compound="C[C@@H](O)[C@@H](NC(=O)CNC(=O)[C@H](CCCN)NC(=O)[C@@H](CCCN([O-])C=O)NC(=O)[C@@H](CO)NC(=O)[C@@H]1CCNc2c(NC(=O)C(=O)CCC(=O)O)cc3cc([O-])c([O-])cc3[n+]21)C(=O)N[C@@H](CO)C(=O)N[C@H]1CCCN([O-])C1=O.[Fe+3] [Pvd II aKG (+Fe), Pvd type II α-ketoglutaryl] ({Butanoyl(2-oxo,4-COOH)}-[X1][dS][dOrn(N5-OH,N5-CHO)][Orn]G[d(aThr)]S-X2)" uom=nM result=1.19
